- system: human full-length VWF (human, UniProt P04275 764-2813)
- assay: SPR, Biacore T200, antibody captured on Protein A, full-length VWF as analyte, single-cycle kinetics
readoutKind: Kd (pM)
Note: unit pM is implicit; provide only the numeric part.

Q: Look up Kd: 1-A2 (antibody, human IgG1, V domains shown, Rabbit-derived variable domains cloned into a human IgG1 expression vector and expressed as monoclonal antibody; also called clone 1-A2; antibody 1-A2) VH: QSVEESGGRLVPPGTPLTLTCTVSGIDLTSNAMNWVRQAPGKGLEWIGGIYGHDTSYYAAWAKGRFTISRTSTTVDLKMTRPTTDDTATYFCARGFIYFDIWGTGTLVTISS VL: AIEMTQTPPSLSASVGETVRIRCLASEDIYSGISWYQQKPGKPPTLLIYGASNLESGVPPRFSGSGSGTDYTLTIGGVQAEDAATYYCLGGHSHSTTDLTFGAGTKVEIK
Result: 8.02

Q: Recorded Kd of 1-A2_H2_L1 (antibody, human IgG1, kappa, V domains shown, humanised, human IgG1 kappa) VH: QQLVESGGGVVQPGRSLRLSCAASGIDLTSNAMNWVRQAPGKGLEWIGGIYGHDTSYYAAWAKGRFTISRDSNTVYLQMNSLRAEDTATYFCARGFIYFDIWGQGTLVTVSS VL: DIQMTQSPSSLSASVGDRVTITCLASEDIYSGISWYQQKPGKAPKLLIYGASNLESGVPSRFSGSGSGTDYTLTISSLQPEDFATYYCLGGHSHSTTDLTFGGGTKVEIKT , please.
Result: 2.03
